- Tested on: PC-3 prostate
- Assay comment: NCI-60 one-dose screen, 48 h (100 = growth as untreated, 0 = no growth, -100 = all killed)
- Assay conditions: 10 µM unless noted
About 83,000 compounds went through this panel and 20% of them were active in at least one assay; those are over-represented in the sample as a whole.
Classification field: Fulfilled = growth at or over 50%; Not fulfilled = growth under 50%.

[
  {
    "Molecule": "NC(=S)N/N=C\\c1nccc2c(N)cccc12",
    "Cat": "Not fulfilled"
  },
  {
    "Molecule": "CC(C)=CCCC(C)C1=C(O)C(=O)C(C)=CC1=O (stereo unspecified)",
    "Cat": "Fulfilled"
  },
  {
    "Molecule": "C/C=C/c1cc2c(c(=O)o1)C(=O)[C@@H](O)[C@H](C)O2",
    "Cat": "Not fulfilled"
  },
  {
    "Molecule": "O=[N+]([O-])c1ccc(C(Br)c2ccc([N+](=O)[O-])cc2)cc1",
    "Cat": "Fulfilled"
  },
  {
    "Molecule": "CCN(CC)CC(O)c1cc(-c2ccc(Cl)cc2)nc2cc(Cl)ccc12 (stereo unspecified)",
    "Cat": "Not fulfilled"
  },
  {
    "Molecule": "CN=C(N)N/N=C(\\C)c1ccc2c(c1)Cc1ccccc1-2",
    "Cat": "Not fulfilled"
  }
]
